Source listed as patent US20120016155A1.

Each entry below carries its recorded EC50.
- measured on: mGlu7 (Homo sapiens)
- Sequence (Q14831 35-915): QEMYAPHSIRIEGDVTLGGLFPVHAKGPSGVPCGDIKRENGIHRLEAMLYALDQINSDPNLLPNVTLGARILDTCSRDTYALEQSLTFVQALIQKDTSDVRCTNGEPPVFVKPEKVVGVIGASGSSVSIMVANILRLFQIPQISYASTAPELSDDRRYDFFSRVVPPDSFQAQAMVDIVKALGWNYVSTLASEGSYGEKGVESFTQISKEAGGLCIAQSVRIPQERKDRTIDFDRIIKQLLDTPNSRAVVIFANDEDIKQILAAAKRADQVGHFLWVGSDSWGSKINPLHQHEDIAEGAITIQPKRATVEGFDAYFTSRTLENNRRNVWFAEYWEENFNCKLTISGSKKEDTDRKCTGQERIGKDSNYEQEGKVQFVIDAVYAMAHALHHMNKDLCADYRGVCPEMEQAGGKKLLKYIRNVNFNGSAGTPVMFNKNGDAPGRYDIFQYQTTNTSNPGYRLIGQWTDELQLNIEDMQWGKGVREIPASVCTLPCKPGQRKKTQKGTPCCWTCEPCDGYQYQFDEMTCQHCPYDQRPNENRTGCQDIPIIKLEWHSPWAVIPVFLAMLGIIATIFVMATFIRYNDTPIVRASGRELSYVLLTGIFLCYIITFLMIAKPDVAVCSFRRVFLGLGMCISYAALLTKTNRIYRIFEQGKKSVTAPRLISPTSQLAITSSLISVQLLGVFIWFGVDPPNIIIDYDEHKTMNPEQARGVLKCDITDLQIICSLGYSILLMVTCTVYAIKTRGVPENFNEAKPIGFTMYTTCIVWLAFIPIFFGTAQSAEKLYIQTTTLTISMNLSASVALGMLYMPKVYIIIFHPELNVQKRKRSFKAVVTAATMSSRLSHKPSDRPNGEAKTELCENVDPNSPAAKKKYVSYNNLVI
- assay summary: Activities on metabotropic glutamate receptor 7 (EC50; readout marked IP or by a symbol)
- Format: cell-based
- experimental setup: values marked with an image symbol (second readout, not IP); mean ± spread (n); read-out: mG1u7 EC50 μM (n) (converted)
Structures can show the parent of a compound that is named as a salt.
Kindly answer with a numeric value in µM, unit omitted.

COc1cc(C(O)P(=O)(O)CC[C@H](N)C(=O)O)cc([N+](=O)[O-])c1O (single isomer, unassigned) [LSP3-1101-II, hydrochloride]
100

// EC50 lookup, molecule = COc1cc(C(O)P(=O)(O)CC[C@H](N)C(=O)O)cc([N+](=O)[O-])c1O (mixture of isomers) [LSP1-2111] , result: 101

COc1cc(C(O)P(=O)(O)CC[C@H](N)C(=O)O)cc([N+](=O)[O-])c1O (single isomer, unassigned) [LSP3-1101-I, hydrochloride] yielded EC50 of 63

----------
- measured on: mGlu4 (Homo sapiens, UniProt Q14833)
- Sequence (Q14833 33-912): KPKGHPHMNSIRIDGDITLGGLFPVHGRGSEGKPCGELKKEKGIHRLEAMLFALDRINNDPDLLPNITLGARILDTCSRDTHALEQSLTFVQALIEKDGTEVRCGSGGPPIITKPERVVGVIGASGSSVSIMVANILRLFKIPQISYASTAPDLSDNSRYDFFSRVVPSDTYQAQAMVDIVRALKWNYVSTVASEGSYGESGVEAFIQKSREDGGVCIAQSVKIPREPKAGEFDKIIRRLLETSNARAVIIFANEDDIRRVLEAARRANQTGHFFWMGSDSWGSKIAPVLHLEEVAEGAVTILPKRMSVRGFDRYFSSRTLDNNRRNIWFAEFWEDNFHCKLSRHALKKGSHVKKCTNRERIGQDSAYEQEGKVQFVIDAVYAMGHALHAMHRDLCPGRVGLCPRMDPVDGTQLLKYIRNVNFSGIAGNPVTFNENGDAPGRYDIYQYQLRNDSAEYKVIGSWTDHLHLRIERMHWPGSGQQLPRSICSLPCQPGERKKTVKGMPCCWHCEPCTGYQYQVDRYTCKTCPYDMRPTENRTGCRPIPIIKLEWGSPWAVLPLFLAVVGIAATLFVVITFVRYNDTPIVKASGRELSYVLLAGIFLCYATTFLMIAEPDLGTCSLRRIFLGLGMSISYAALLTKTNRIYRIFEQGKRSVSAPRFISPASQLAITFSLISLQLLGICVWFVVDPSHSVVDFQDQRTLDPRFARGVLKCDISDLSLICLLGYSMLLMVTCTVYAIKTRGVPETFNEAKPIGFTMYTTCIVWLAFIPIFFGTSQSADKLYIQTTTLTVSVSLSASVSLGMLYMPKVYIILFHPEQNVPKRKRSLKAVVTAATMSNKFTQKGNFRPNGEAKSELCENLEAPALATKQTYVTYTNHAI
- assay summary: Activities on metabotropic glutamate receptor 4 (EC50; readout marked IP or by a symbol)
- Type: cell-based
- experimental setup: ratio of mGlu8 EC50 to mGlu4 EC50, one per pair of values (readout/batch)
Where a name gives a salt, the structure may show the parent alone.
outcome measure: mGlu8/4 EC50 ratio
Keep the answer to the number alone.

Would you please look over these solved cases?
N[C@@H](CCP(=O)(O)C(O)c1cccc(OCC(=O)O)c1)C(=O)O (single isomer, unassigned) [LSP3-3108-II]
2.3
CCOc1cc(C(O)P(=O)(O)CC[C@H](N)C(=O)O)cc([N+](=O)[O-])c1O (mixture of isomers) [LSP3-1145]
3.1

Then there is this compound:
With mGlu4 (Homo sapiens, UniProt Q14833) as the test system, COc1cc(C(O)P(=O)(O)CC[C@H](N)C(=O)O)cc([N+](=O)[O-])c1O (single isomer, unassigned) [LSP3-1101-II, hydrochloride] showed mGlu8/4 EC50 ratio of 5.9

----------
- measured on: UniProtKB O00222
- assay summary: Activities on metabotropic glutamate receptor 8 (EC50; readout marked IP or by a symbol)
- Type: cell-based
- experimental setup: values marked IP; mean ± spread (n)
Measured log10(EC50) accompanies every entry in the list below.
Units before log transform: µM; reported quantity: EC50; transform: log10.

Here's what some known entries look like.
COc1ccc(C(O)P(=O)(O)CC[C@H](N)C(=O)O)cc1[N+](=O)[O-] (some centres unmarked)
-0.07
N[C@@H](CCP(=O)(O)Cc1cccc([N+](=O)[O-])c1)C(=O)O
0.64
N[C@@H](CCP(=O)(O)C(O)c1cccc([N+](=O)[O-])c1)C(=O)O (mixture of isomers)
0.18
COc1cc(C(O)P(=O)(O)CC[C@H](N)C(=O)O)cc([N+](=O)[O-])c1O (mixture of isomers)
1.82

Then this compound:
Hey, UniProtKB O00222 data for NC(c1cccc([N+](=O)[O-])c1)P(=O)(O)CC[C@H](N)C(=O)O (some centres unmarked) : log10(EC50) came out at 0.34

----------
- measured on: UniProt O00222
- assay summary: Activities on metabotropic glutamate receptor 8 (EC50; readout marked IP or by a symbol)
- Assay type: cell-based
- experimental setup: values marked with an image symbol (second readout, not IP); mean ± spread (n)
- Text: Activities on Metabotropic Glutamate Receptors 4, 8, 6 and 7. Nitrobenzyl PCEP Derivatives
Structures can show the parent of a compound that is named as a salt.
So basically, if EC50 comes in under 30 µM it's Satisfied, and if it's 30 µM or more it's Not satisfied.

Some solved cases for reference:
COc1ccc(C(O)P(=O)(O)CC[C@H](N)C(=O)O)cc1[N+](=O)[O-] (single isomer, unassigned) [LSP2-6146-II, hydrochloride]
Satisfied
COc1ccc(C(O)P(=O)(O)CC[C@H](N)C(=O)O)cc1[N+](=O)[O-] (stereo partly shown) [LSP1-2101]
Satisfied
Cl.N[C@@H](CCP(=O)(O)C(O)c1ccc(O)c([N+](=O)[O-])c1)C(=O)O (single isomer, unassigned) [LSP3-2074-II, hydrochloride]
Not satisfied

Incoming: Is the reported EC50 for N[C@@H](CCP(=O)(O)C(O)c1ccc(O)c([N+](=O)[O-])c1)C(=O)O (single isomer, unassigned) [LSP3-2074-I, hydrochloride] strictly below 30 µM?
Outgoing: Not satisfied

Incoming: Is the reported EC50 for CCOc1cc(C(O)P(=O)(O)CC[C@H](N)C(=O)O)cc([N+](=O)[O-])c1O (single isomer, unassigned) [LSP3-1143-II, hydrochloride] strictly below 30 µM?
Outgoing: Satisfied

Incoming: Consider the compound N[C@@H](CCP(=O)(O)C(O)c1cccc(OCC(=O)O)c1)C(=O)O (stereo partly shown) [LSP3-3099] . Is its EC50 strictly less than 30 µM?
Outgoing: Not satisfied

Incoming: Here's an entry: CCOc1cc(C(O)P(=O)(O)CC[C@H](N)C(=O)O)cc([N+](=O)[O-])c1O (mixture of isomers) [LSP3-1145] . Is its EC50 below 30 µM?
Outgoing: Satisfied

----------
- measured on: mGlu8 (Homo sapiens, UniProt O00222)
- Sequence (O00222 34-908): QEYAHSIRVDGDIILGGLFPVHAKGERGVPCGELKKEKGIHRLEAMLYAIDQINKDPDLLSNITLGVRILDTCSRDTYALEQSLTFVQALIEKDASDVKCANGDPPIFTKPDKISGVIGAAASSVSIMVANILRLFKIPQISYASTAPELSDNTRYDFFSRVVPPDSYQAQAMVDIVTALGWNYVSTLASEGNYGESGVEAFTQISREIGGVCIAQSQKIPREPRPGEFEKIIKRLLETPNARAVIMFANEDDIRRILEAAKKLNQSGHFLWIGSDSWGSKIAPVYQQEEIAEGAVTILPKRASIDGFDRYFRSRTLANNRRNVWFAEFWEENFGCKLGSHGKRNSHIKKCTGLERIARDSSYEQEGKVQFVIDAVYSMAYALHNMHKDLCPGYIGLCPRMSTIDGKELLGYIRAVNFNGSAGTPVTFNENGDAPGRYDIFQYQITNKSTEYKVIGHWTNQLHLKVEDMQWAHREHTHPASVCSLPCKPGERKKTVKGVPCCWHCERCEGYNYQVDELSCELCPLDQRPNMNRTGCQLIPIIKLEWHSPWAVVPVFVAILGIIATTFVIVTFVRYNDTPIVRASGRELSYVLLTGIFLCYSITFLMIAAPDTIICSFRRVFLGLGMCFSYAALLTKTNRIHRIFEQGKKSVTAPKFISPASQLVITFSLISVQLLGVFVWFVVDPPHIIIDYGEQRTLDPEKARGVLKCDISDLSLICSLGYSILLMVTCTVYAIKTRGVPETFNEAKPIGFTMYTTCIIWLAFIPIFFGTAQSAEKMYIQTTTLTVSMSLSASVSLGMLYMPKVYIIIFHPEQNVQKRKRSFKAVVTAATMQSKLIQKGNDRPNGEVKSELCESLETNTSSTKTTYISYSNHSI
- assay summary: Activities on metabotropic glutamate receptor 8 (EC50; readout marked IP or by a symbol)
- Type: cell-based
- experimental setup: values marked with an image symbol (second readout, not IP); mean ± spread (n)
Structures can show the parent of a compound that is named as a salt.
outcome measure: log10 EC50 (log10 of the value in µM)
Each number you see is log10 of EC50, and the unit inside the log is µM.

These recorded examples may help you get a feel for the data.
NC(CCP(=O)(O)C(O)c1cccc([N+](=O)[O-])c1)C(=O)O (single isomer, unassigned) [LSP3-1098-II, hydrochloride]
0.11
N[C@@H](CCP(=O)(O)Cc1cccc([N+](=O)[O-])c1)C(=O)O
0.00
COc1ccc(C(O)P(=O)(O)CC[C@H](N)C(=O)O)cc1[N+](=O)[O-] (single isomer, unassigned) [LSP2-6146-I, hydrochloride]
0.40

log10 EC50 on mGlu8 (Homo sapiens, UniProt O00222) for N[C@@H](CCP(=O)(O)C(O)c1cccc(OCC(=O)O)c1)C(=O)O (single isomer, unassigned) [LSP3-3108-I] is 1.56

CCOc1cc(C(O)P(=O)(O)CC[C@H](N)C(=O)O)cc([N+](=O)[O-])c1O (single isomer, unassigned) [LSP3-1143-I, hydrochloride] on mGlu8 (Homo sapiens, UniProt O00222) gives log10 EC50 = 1.52

The compound "COc1cc(CP(=O)(O)CC[C@H](N)C(=O)O)cc([N+](=O)[O-])c1O.N" , tested on mGlu8 (Homo sapiens, UniProt O00222), showed log10 EC50 of 1.22

Simply: NC(CCP(=O)(O)C(O)c1cccc([N+](=O)[O-])c1)C(=O)O (single isomer, unassigned) [LSP3-1098-I, hydrochloride] , mGlu8 (Homo sapiens, UniProt O00222), log10 EC50 = 0.10

Given the compound COc1cc(C(O)P(=O)(O)CC[C@H](N)C(=O)O)cc([N+](=O)[O-])c1O (single isomer, unassigned) [LSP3-1101-I, hydrochloride] and test system mGlu8 (Homo sapiens, UniProt O00222), the measured log10 EC50 is 1.36

The value of log10 EC50 recorded for COc1cc(C(O)P(=O)(O)CC[C@H](N)C(=O)O)cc([N+](=O)[O-])c1O (single isomer, unassigned) [LSP3-1101-II, hydrochloride] when tested on mGlu8 (Homo sapiens, UniProt O00222) reads 1.43

Item N[C@@H](CCP(=O)(O)C(O)c1cccc(OCC(=O)O)c1)C(=O)O (single isomer, unassigned) [LSP3-3108-II] was tested on mGlu8 (Homo sapiens, UniProt O00222); the reported log10 EC50 is 1.47

The observed log10 EC50 for COc1cc(C(N)P(=O)(O)CC[C@H](N)C(=O)O)cc([N+](=O)[O-])c1O (some centres unmarked) when tested with mGlu8 (Homo sapiens, UniProt O00222) stands at 1.52

----------
- measured on: UniProtKB Q14833
- assay summary: Activities on metabotropic glutamate receptor 4 (EC50; readout marked IP or by a symbol)
- Format: cell-based
- experimental setup: values marked with an image symbol (second readout, not IP); mean ± spread (n)
Below, each of the molecules is paired with its reported EC50 value.
# unit: µM | format: bare number

COc1cc(C(N)P(=O)(O)CC[C@H](N)C(=O)O)cc([N+](=O)[O-])c1O (stereo partly shown)
13

So for N[C@@H](CCP(=O)(O)C(O)c1cccc(OCC(=O)O)c1)C(=O)O (stereo partly shown) [LSP3-3099] , the logged EC50 turned out to be 7.6

Quick note, EC50 for N[C@@H](CCP(=O)(O)C(O)c1cccc(OCC(=O)O)c1)C(=O)O (single isomer, unassigned) [LSP3-3108-I] landed at 4.9

Looking up "N[C@@H](CCP(=O)(O)Cc1cccc([N+](=O)[O-])c1)C(=O)O" , I see its EC50 listed as 0.42
